Biological target: furin, P09958;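 further: purified furin at 1:10 enzyme:substrate in 50 mM HEPES pH 7.5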
Sequence (P09958 whole entry): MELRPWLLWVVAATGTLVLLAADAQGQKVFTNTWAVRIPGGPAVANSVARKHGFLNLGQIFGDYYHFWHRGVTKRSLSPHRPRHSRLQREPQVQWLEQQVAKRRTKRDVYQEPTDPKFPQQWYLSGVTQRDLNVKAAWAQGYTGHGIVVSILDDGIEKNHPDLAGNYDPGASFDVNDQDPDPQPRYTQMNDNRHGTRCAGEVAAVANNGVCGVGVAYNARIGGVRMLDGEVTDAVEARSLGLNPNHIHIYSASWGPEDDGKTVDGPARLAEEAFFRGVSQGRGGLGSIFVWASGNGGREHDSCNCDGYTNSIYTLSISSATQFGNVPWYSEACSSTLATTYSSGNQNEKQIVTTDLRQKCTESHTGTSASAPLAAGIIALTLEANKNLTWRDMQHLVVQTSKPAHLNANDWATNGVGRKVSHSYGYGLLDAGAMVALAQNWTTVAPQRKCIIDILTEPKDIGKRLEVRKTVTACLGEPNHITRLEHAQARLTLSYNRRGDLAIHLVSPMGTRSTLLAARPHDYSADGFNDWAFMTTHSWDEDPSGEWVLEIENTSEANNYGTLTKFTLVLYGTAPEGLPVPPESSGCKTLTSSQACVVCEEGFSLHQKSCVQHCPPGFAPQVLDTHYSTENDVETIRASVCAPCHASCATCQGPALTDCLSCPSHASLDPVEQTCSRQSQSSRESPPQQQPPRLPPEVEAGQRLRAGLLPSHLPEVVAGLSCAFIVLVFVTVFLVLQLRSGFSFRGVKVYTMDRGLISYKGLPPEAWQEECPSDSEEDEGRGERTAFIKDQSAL
Test: furin cleavage Z-score vs untreated control; higher = more cleavage, active = 3.5 or more, inactive = 1 or less, 8 variable residues between constant flanks
Conditions: 7.5 min
This is one part of the list. The hit rate among all sequences tested is not known here.
MEASURED_ATTRIBUTE: furin cleavage Z-score
One number for each entry.

// below: answered sequences
CHAIN_SEQUENCE: CACVPCHRPSAGNASASA [HC2320]
furin cleavage Z-score: -1.73
//
CHAIN_SEQUENCE: CAEVVTSTLVAGNASASA [HC2225]
furin cleavage Z-score: -0.125

Provide furin cleavage Z-score for all items below, preserving their order.
1. CAQVPSPEFFAGNASASA [HC1218]
2. CAYKVLVLNPAGNASASA [HC785]
3. CAHLHAPTGSAGNASASA [HC774]

1. -1.13
2. 1.85
3. -0.0824

Provide furin cleavage Z-score for all items below, preserving their order.
1. CADREVVTSTAGNASASA [HC2293]
2. CAVVLLFLLLAGNASASA [HC520]

1: 0.73; 2: -0.794
